growth inhibition by entry:
ASSAY NOTES: NCI Yeast Anticancer Drug Screen. Data for the mlh1 rad18 strain (AID 175)
MEASUREMENT PARAMETERS: S. cerevisiae mlh1 rad18 strain growth inhibition; at 5.0 µM (retest, dose inferred, filed as 0.5); stronger effect = higher value
This is part of a sample that, as a whole, favours compounds with a hit. Of some 79,000 tested, about 15% had one in any assay.

- COMPOUND: "Oc1ccc(SCc2cc(O)ccc2O)cc1"
  growth inhibition, %: 10
- COMPOUND: "NNc1cc(C(F)(F)F)nc2ccccc12"
  growth inhibition, %: -108
- COMPOUND: "Cn1c2nc(-[n+]3ccccc3)nc-2c([O-])n(C)c1=O"
  growth inhibition, %: -1
- COMPOUND: "CCC1(CC(=O)O)OCCc2c1[nH]c1c(C)c(Cl)ccc21 (stereo unspecified)"
  growth inhibition, %: -1
- COMPOUND: "Cc1cc(N(CCCOS(C)(=O)=O)CCCOS(C)(=O)=O)ccc1C=Nc1cc(Br)c(O)c(Br)c1"
  growth inhibition, %: -2
- COMPOUND: "CC12CCC3C(CCC4CC(O)CCC43C)C1CC1C2=NOC1O (stereo unspecified)"
  growth inhibition, %: -1

All values here come from PubChem BioAssay (NCI).
